ASSAY: ATP-based viability of Huh7 replicon cells – cell-based, CellTiter-Glo luminescence, basal, 48 h, cytotoxicity control for HCV replication inhibitor project, primary screen (AID 1143);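 further: Huh7 hepatoma cells carrying a hepatitis C replication reporter with no stimulus; test concentration not given here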
RUN CONDITIONS: higher = more signal, called active from +8 up or from −8 down
MEASUREMENT LABEL: z-score
API doc: respond with a numeric literal and nothing else, no unit.

QUERY: Tell me z-score reported for CCCCC(CC)C(O)C1C=CC2C(=O)N(c3ccccc3)C(=O)C2N1Nc1ccccc1F (centres undefined)
RESULT: -2.32

QUERY: Respond only with z-score recorded for C=CCNC(=O)[C@@H]1[C@H]2C(=O)O[C@H](c3ccccc3)[C@H](c3ccccc3)N2[C@H](c2ccc(O)cc2)[C@@]12C(=O)N(C(=O)OCCOC)c1ccc(C#CC3=CCCCC3)cc12
RESULT: -2.12

QUERY: Answer with the recorded z-score of CCCNC(=O)[C@@H]1c2ccccc2C(=O)N(Cc2ccc(OC(F)(F)F)cc2)[C@H]1c1ccc(CO)cc1 only.
RESULT: -0.88

QUERY: Give the value of z-score reported for the following: CCOC(=O)C[C@H]1[C@H](OC(=O)c2ccc(C(=O)c3ccccc3)cc2)[C@@H](NC(=O)c2ccc3ccccc3n2)c2cc(OCCCO)ccc2N1C(=O)Cc1ccc(OC)cc1
RESULT: -0.124

* * *

ASSAY: blockers of DNA damage checkpoint Chk1 activation – imaging, HeLa, hydroxyurea, phospho-Chk1 antibody, percent positive cells, primary screen (AID 1186)
RUN CONDITIONS: hydroxyurea-induced phospho-Chk1 immunofluorescence imaging, higher = more signal
MEASUREMENT LABEL: z-score
The reply should be a number, written without any unit.

QUERY: Please give measured z-score of the following entry: [N-]=[N+]=NCc1ccccc1[C@H]1OC(c2ccc(OCCCO)cc2)=N[C@@]1(Cc1ccccc1N=[N+]=[N-])C(=O)NCC(O)CO (some centres not stated)
RESULT: -0.266

QUERY: Identify the reported z-score for the following entry. COCCCNC(=O)[C@@H]1c2ccccc2C(=O)N(C(C)C)[C@H]1c1ccc(CO)cc1
RESULT: -0.244

QUERY: Read off the recorded z-score for C=CCC(OC(C)=O)[C@@H]1[C@@H](N(Cc2ccc(-c3cccc(C(F)(F)F)c3)o2)C(=O)c2ccc(-c3ccccc3)cc2)c2cc(OCCCO)ccc2N1C(=O)Cc1ccc2ccccc2c1 (some centres not stated)
RESULT: 0.345

QUERY: Name the recorded z-score of the item CS(=O)(=O)CCOC(=O)C1=CC(CCCO)=CC(c2ccc(CN3CCCC3)cc2)N(Cc2sc3ccccc3c2Cl)C=C1C(=O)OCCS(C)(=O)=O (configuration not stated) in your answer.
RESULT: 0.316

QUERY: Consider the compound [N-]=[N+]=NCc1ccccc1[C@@H]1OC(c2ccc(OCCCO)cc2)=N[C@]1(CCS(=O)(=O)c1ccccc1)C(=O)O . State its measured z-score.
RESULT: 0.162

QUERY: // fetch z-score given entry CCCCCCCCCCC(O)C1C=CC2C(=O)N(c3ccccc3)C(=O)C2N1Nc1ccc(C#N)cc1 (configuration not stated)
RESULT: 0.0905

QUERY: Quick one: give measured z-score for CC#CCO[Si](C#Cc1ccccc1)(C(C)C)C(C)C
RESULT: 0.988

* * *

ASSAY: JC-1 mitochondrial signal, unstimulated adipocytes – cell-based, JC-1 fluorescence, 3T3-L1 adipocytes, 24 h, 100 nL compound, profiling panel (AID 1168); further: test concentration not given here
RUN CONDITIONS: JC-1 mitochondrial fluorescence, higher = more signal, called active from +8 up or from −8 down
# label = 1 (yes) if z-score >= -0.1 else 0 (no)

QUERY: z-score >= -0.1 for COC(=O)C/C=C/C[C@]1(O)C(=O)N(C)c2ccccc21 ?
RESULT: 0 (no)

QUERY: Does the reported z-score for CCOC(=O)C[C@H]1[C@H](OC(=O)Cc2ccc3c(c2)OCO3)[C@@H](NC(=O)C2CCCCC2)c2cc(OCCCO)ccc2N1C(=O)c1ccccc1 fall at or above the -0.1 mark?
RESULT: 1 (yes)

QUERY: Textbook exercise: given the entry CCCCCCc1nc(Cc2cc(OC)c(OC)c(OC)c2)cc2c1[Si](C(C)C)(C(C)C)OC2 , state whether its z-score is greater than or equal to -0.1.
RESULT: 1 (yes)

QUERY: Textbook exercise: given the entry CCOc1cc(C(O)C2C=CC3C(=O)NC(=O)C3N2Nc2ccc(Cl)cc2Cl)ccc1O (stereo unspecified) , state whether its z-score is greater than or equal to -0.1.
RESULT: 0 (no)

QUERY: # check: z-score of COC(=O)C1=CC(CCCO)=CC(c2cccs2)N(Cc2cccc(OC(F)(F)F)c2)C=C1C(=O)OC (stereo unspecified) is greater than or equal to -0.1
RESULT: 1 (yes)

* * *

Assignment: determine reported composite z-score for the given molecules.
TARGET OF ASSAY: Dickkopf-related protein 1 (Homo sapiens) (UniProt O94907)
Sequence (O94907 whole entry, looked up): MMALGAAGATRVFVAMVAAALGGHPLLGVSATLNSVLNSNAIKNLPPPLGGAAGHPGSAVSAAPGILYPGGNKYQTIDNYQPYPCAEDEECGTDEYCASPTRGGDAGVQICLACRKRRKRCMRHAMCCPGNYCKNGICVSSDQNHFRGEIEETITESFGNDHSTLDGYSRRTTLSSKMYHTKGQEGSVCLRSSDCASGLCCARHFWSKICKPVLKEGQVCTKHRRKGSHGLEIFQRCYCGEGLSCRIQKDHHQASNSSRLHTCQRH
ASSAY: small molecules binding DKK1 protein – biochemical, small-molecule microarray, 635 nm fluorescence scan, primary screen (AID 1106);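 further: score merges emission near 667 nm with signal to noise over three replicate slides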
RUN CONDITIONS: higher = more signal
Output: the number by itself.

QUERY: For Dickkopf-related protein 1 (Homo sapiens) (UniProt O94907), give the measured composite z-score of the entry CC(=O)N1CC2(CC2)CC1c1ccccc1 (stereo unspecified)
RESULT: -0.0538

QUERY: Supply composite z-score measured with Dickkopf-related protein 1 (Homo sapiens) (UniProt O94907) for COCC(=C=CC[C@H](O)c1ccc(OCCO)cc1)CCO .
RESULT: 0.0604

QUERY: With Dickkopf-related protein 1 (Homo sapiens) (UniProt O94907) as the test system, provide measured composite z-score for this molecule: COCC(=C=CC[C@H](O)c1ccccc1OCCO)C[C@H](O)c1ccccn1
RESULT: -0.0344

QUERY: Find the measured composite z-score of COc1cc(NN2C(C(O)c3ccco3)C=CC3C(=O)N(C)C(=O)C32)cc(OC)c1OC (stereo unspecified) with Dickkopf-related protein 1 (Homo sapiens) (UniProt O94907) as test system.
RESULT: 0.216

QUERY: Report value: composite z-score, system: Dickkopf-related protein 1 (Homo sapiens) (UniProt O94907), molecule: CC(C)[Si](C#C[Si](C(C)C)(C(C)C)C(C)C)(O[C@H](c1ccccc1)c1cn(Cc2ccccc2)nn1)C(C)C
RESULT: 0.405

QUERY: Give measured composite z-score for C=CCC(OC(C)=O)[C@@H]1[C@@H](N(Cc2cccc3ccccc23)C(=O)Cc2ccc(OC)cc2)c2cc(OCCCO)ccc2N1C(=O)c1ccc(-c2ccccc2)cc1 (stereo partly specified) (Dickkopf-related protein 1 (Homo sapiens) (UniProt O94907)).
RESULT: -0.324

QUERY: Report value only: composite z-score, Dickkopf-related protein 1 (Homo sapiens) (UniProt O94907), CCCCC(CC)C(O)C1C=CC2C(=O)N(C)C(=O)C2N1Nc1ccccc1 (stereo unspecified)
RESULT: -0.0617

QUERY: Give composite z-score for C=CC[C@@H](OC(=O)Nc1ccc(OC)cc1)c1ccc(O)c(F)c1 tested on Dickkopf-related protein 1 (Homo sapiens) (UniProt O94907).
RESULT: -0.658

QUERY: Please report the measured composite z-score for COCC(=C=CC[C@H](O)c1ccc(CO)o1)CCO tested on Dickkopf-related protein 1 (Homo sapiens) (UniProt O94907).
RESULT: 0.352

QUERY: Give measured composite z-score for COCCOC(=O)N1C(=O)[C@@]2(c3cc(C#CCCO)ccc31)[C@H](C(=O)Nc1nc3ccccc3s1)[C@H]1C(=O)O[C@H](c3ccccc3)[C@H](c3ccccc3)N1[C@@H]2c1ccc(O)cc1 (Dickkopf-related protein 1 (Homo sapiens) (UniProt O94907)).
RESULT: 0.957

QUERY: Recall the reported composite z-score of CCCCCCCCCCC(O)C1C=CC2C(=O)N(c3ccccc3)C(=O)C2N1Nc1ccc(C#N)cc1 (stereo unspecified) on Dickkopf-related protein 1 (Homo sapiens) (UniProt O94907) and write it down.
RESULT: -0.517

QUERY: Report composite z-score under test system Dickkopf-related protein 1 (Homo sapiens) (UniProt O94907) for C[N+](C)(C)CCCCCCNC(=O)[C@@H]1C[C@@H]2C(=O)N3CCC[C@H]3C(=O)N2[C@@H]1c1ccc(O)cc1 .
RESULT: 1.25

QUERY: Recall the reported composite z-score of O=c1cccc(-c2ccc([N+](=O)[O-])cc2)o1 when tested on Dickkopf-related protein 1 (Homo sapiens) (UniProt O94907).
RESULT: 0.0662

QUERY: Under Dickkopf-related protein 1 (Homo sapiens) (UniProt O94907): report composite z-score of CC(C)=C1C(=O)C(c2ccccc2)=C2CN3C(=O)N(CCc4ccccc4)C(=O)[C@]3(Cc3ccc(C(F)(F)F)cc3)[C@H]21 .
RESULT: -1.7

QUERY: Report its composite z-score with Dickkopf-related protein 1 (Homo sapiens) (UniProt O94907) as the test system: CCOC(=O)C[C@H]1[C@H](OC(=O)c2ccc(C(=O)c3ccccc3)cc2)[C@@H](NC(=O)CC(C)C)c2cc(OCCCO)ccc2N1C(=O)c1ccccc1
RESULT: 0.95

QUERY: Look up and report measured composite z-score (Dickkopf-related protein 1 (Homo sapiens) (UniProt O94907)) for the following molecule: Cc1ccc(S[C@]2(C(=O)NCCN3CCOCC3)CC(=O)N(Cc3ccccc3Cl)[C@@H]2c2ccc(CO)cc2I)cc1
RESULT: -1.82

QUERY: Give the observed composite z-score of O=C1C[C@]2(c3ccc([N+](=O)[O-])cc3)C(=O)N(C3CC3)c3cc(CO)ccc3[C@H]2N1CC12CC3CC(CC(C3)C1)C2 for Dickkopf-related protein 1 (Homo sapiens) (UniProt O94907).
RESULT: -0.769

QUERY: GET composite z-score where system = Dickkopf-related protein 1 (Homo sapiens) (UniProt O94907) and item = O=C1C2C=CC(C(O)c3ccco3)N(Nc3ccccc3F)C2C(=O)N1c1ccccc1 (stereo unspecified)
RESULT: 0.326

QUERY: Quote composite z-score with test system Dickkopf-related protein 1 (Homo sapiens) (UniProt O94907) for O=C1CS(=O)(=O)C(c2cccc([N+](=O)[O-])c2)N1c1ccccc1 (stereo unspecified)
RESULT: 0.625

QUERY: State composite z-score on Dickkopf-related protein 1 (Homo sapiens) (UniProt O94907). Entry: COC(=O)[C@@H]1N=C(c2ccc(OCCCO)cc2)O[C@@H]1C
RESULT: 0.0375

QUERY: Quote composite z-score with test system Dickkopf-related protein 1 (Homo sapiens) (UniProt O94907) for CC(C)c1ccc(NN2C(C(O)c3ccc(F)cc3)C=CC3C(=O)N(c4ccccc4)C(=O)C32)cc1 (stereo unspecified)
RESULT: -0.0647

QUERY: Report composite z-score on Dickkopf-related protein 1 (Homo sapiens) (UniProt O94907) for this entry: CC[C@@H]1O[Si](C(C)C)(C(C)C)c2c1cc(-c1cc(C)c(OC)c(C)c1)nc2-c1ccc(Oc2ccccc2)cc1
RESULT: -0.497

QUERY: Give Dickkopf-related protein 1 (Homo sapiens) (UniProt O94907) composite z-score for the following molecule: Cc1ccc(S[C@]2(C(=O)O)CC(=O)N(C3CCCCC3)[C@@H]2c2ccc(CO)cc2I)cc1
RESULT: -0.231

QUERY: Return reported composite z-score for target or system Dickkopf-related protein 1 (Homo sapiens) (UniProt O94907), item [N-]=[N+]=NCc1ccccc1[C@H]1OC(c2ccc(OCCCO)cc2)=N[C@@]1(Cc1ccccc1N=[N+]=[N-])C(=O)NCC(O)CO (stereo partly specified) .
RESULT: -0.308

QUERY: Write composite z-score of [N-]=[N+]=NCc1ccccc1C[C@@]1(C(N)=O)N=C(c2ccc(OCCCO)cc2)O[C@@H]1c1ccccc1 ; system used: Dickkopf-related protein 1 (Homo sapiens) (UniProt O94907)
RESULT: -1.38

QUERY: Look up and report measured composite z-score (Dickkopf-related protein 1 (Homo sapiens) (UniProt O94907)) for the following molecule: CC(=O)NCCCC[C@@H]1NC(=O)[C@@H]2C[C@H](C(=O)NCCCCCN)[C@H](c3cccc(OCCO)c3)N2C1=O
RESULT: 0.823
